- System: NCI-H1435 (Non-Small Cell Lung Carcinoma);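 further: after 72 h of two-drug dosing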
- assayRemarks: Bliss excess, mean over the matrix (fraction); higher = more synergy

compound: CN(C)CCCOc1ccc(-c2ccc3ncc4c(c3c2)n(C2CCOCC2)c(=O)n4C)cn1 [AZD0156] + O=C(c1cc(Cc2n[nH]c(=O)c3ccccc23)ccc1F)N1CCN(C(=O)C2CC2)CC1 [Olaparib] (first compound max 3 µM, partner max 3 µM)
Bliss excess: -0.0277
//
compound: Cc1c2c(nn1C)CSCc1cc(n(C)n1)CSc1cc(c3ccccc3c1)OCCCc1c(C(=O)O)n(C)c3c-2c(Cl)ccc13 [AZD5991] + CN(C)CCCOc1ccc(-c2ccc3ncc4c(c3c2)n(C2CCOCC2)c(=O)n4C)cn1 [AZD0156] (first compound max 1 µM, 7x7, partner max 1 µM)
Bliss excess: 0.0719
//
compound: C[C@@H]1COCCN1c1cc(C2([S@](C)(=N)=O)CC2)nc(-c2ccnc3[nH]ccc23)n1 [AZD6738] + Nc1ccn([C@@H]2O[C@H](CO)[C@@H](O)C2(F)F)c(=O)n1 [Gemcitabine] (first compound max 10 µM, 7x7, partner max 0.3 µM)
Bliss excess: 0.0799
//
compound: COc1nnc2ccc(N3CCC(c4ccc(OCCN5CCN(C)C(=O)[C@H]5C)cc4)CC3)nn12 [AZD5153] + C[C@@H]1COCCN1C2=NC(=NC(=C2)C3(CC3)[S@](=N)(=O)C)C4=C5C=CNC5=NC=C4 [AZD6738] (first compound max 1 µM, 7x7, partner max 10 µM)
Bliss excess: 0.0222

###

- Tested on: NCI-H2009 (Lung Adenocarcinoma)
- assayRemarks: combination Emax (second highest fraction inhibited in the dose matrix, 72 h); higher = more inhibition; extreme values may be limits of the assay
# combination Emax annotations

compound: O=C(c1cc(Cc2n[nH]c(=O)c3ccccc23)ccc1F)N1CCN(C(=O)C2CC2)CC1 [Olaparib] + COc1nnc2ccc(N3CCC(c4ccc(OCCN5CCN(C)C(=O)[C@H]5C)cc4)CC3)nn12 [AZD5153] (first compound max 10 µM, 7x7, partner max 1 µM)
combination Emax: 0.374
//
compound: CCN(CCO)CCCOc1ccc2c(Nc3cc(CC(=O)Nc4cccc(F)c4)[nH]n3)ncnc2c1 [AZD2811] + C=CCn1c(=O)c2cnc(Nc3ccc(N4CCN(C)CC4)cc3)nc2n1-c1cccc(C(C)(C)O)n1 [AZD1775] (first compound max 1 µM, partner max 1 µM)
combination Emax: 0.749

###

The compounds listed here are annotated with their combination Emax.
- Tested on: NCI-H835 (Other Solid Carcinomas)
- assayRemarks: combination Emax (second highest fraction inhibited in the dose matrix, 72 h); higher = more inhibition; extreme values may be limits of the assay
assayEndpoint: combination Emax

compound: C=CCn1c(=O)c2cnc(Nc3ccc(N4CCN(C)CC4)cc3)nc2n1-c1cccc(C(C)(C)O)n1 [AZD1775] + Nc1ccn([C@@H]2O[C@H](CO)[C@@H](O)C2(F)F)c(=O)n1 [Gemcitabine] (first compound max 1 µM, partner max 0.3 µM)
result: 0.476
//
compound: O=C(c1cc(Cc2n[nH]c(=O)c3ccccc23)ccc1F)N1CCN(C(=O)C2CC2)CC1 [Olaparib] + CC1(C)CCC(CN2CCN(c3ccc(C(=O)NS(=O)(=O)c4ccc(NCC5CCOCC5)c([N+](=O)[O-])c4)c(Oc4cnc5[nH]ccc5c4)c3)CC2)=C(c2ccc(Cl)cc2)C1 [Venetoclax] (first compound max 10 µM, 7x7, partner max 1 µM)
result: 0.169
//
compound: C[C@@H](Nc1cc(F)cc(F)c1)c1cc(C(=O)N(C)C)cc2c(=O)cc(N3CCOCC3)oc12 [AZD8186] + C1CN(CCC1(C(=O)N[C@@H](CCO)C2=CC=C(C=C2)Cl)N)C3=NC=NC4=C3C=CN4 [AZD5363] (first compound max 10 µM, 7x7, partner max 10 µM)
result: 0.525
//
compound: CC(=O)c1c(C)c2cnc(Nc3ccc(N4CCNCC4)cn3)nc2n(C2CCCC2)c1=O [Palbociclib] + Cn1cnc2c(F)c(Nc3ccc(Br)cc3Cl)c(C(=O)NOCCO)cc21 [Selumetinib] (first compound max 10 µM, 7x7, partner max 10 µM)
result: 0.133
//
compound: Cn1cnc2c(F)c(Nc3ccc(Br)cc3Cl)c(C(=O)NOCCO)cc21 [Selumetinib] + C=CCn1c(=O)c2cnc(Nc3ccc(N4CCN(C)CC4)cc3)nc2n1-c1cccc(C(C)(C)O)n1 [AZD1775] (first compound max 10 µM, partner max 1 µM)
result: 0.512
//
compound: O=C(c1cc(Cc2n[nH]c(=O)c3ccccc23)ccc1F)N1CCN(C(=O)C2CC2)CC1 [Olaparib] + Cc1c2c(nn1C)CSCc1cc(n(C)n1)CSc1cc(c3ccccc3c1)OCCCc1c(C(=O)O)n(C)c3c-2c(Cl)ccc13 [AZD5991] (first compound max 10 µM, 7x7, partner max 1 µM)
result: 0.149
//
compound: O=C(c1cc(Cc2n[nH]c(=O)c3ccccc23)ccc1F)N1CCN(C(=O)C2CC2)CC1 [Olaparib] + CN(CC[C@H](CSC1=CC=CC=C1)NC2=C(C=C(C=C2)S(=O)(=O)NC(=O)C3=CC=C(C=C3)N4CCC(CC4)[C@H](C5=CC=CC=C5C6=CC=C(C=C6)Cl)O)S(=O)(=O)C(F)(F)F)CCO [AZD4320] (first compound max 10 µM, 7x7, partner max 1 µM)
result: 0.951
